Sourced from ChEMBL document CHEMBL1121568

As shown below, each of these molecules has a reported Relative inhibition value.
testSystem: Beta-lactamase OXA-9 (Klebsiella aerogenes) (UniProt P0A3M4)
Sequence (P0A3M4 whole entry): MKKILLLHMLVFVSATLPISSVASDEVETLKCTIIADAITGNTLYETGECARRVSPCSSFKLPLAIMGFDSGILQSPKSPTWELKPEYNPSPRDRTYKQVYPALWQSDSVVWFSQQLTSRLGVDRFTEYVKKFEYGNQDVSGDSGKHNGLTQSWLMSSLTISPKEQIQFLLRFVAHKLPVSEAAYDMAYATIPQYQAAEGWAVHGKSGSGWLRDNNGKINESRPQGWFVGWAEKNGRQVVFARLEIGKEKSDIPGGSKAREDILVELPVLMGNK
assayNotes: Inhibition of beta-lactamase of Enterobacter aerogenes relative to oxacillin sulfoxide(=1)
Lab note: write the figure by itself, no unit.

>  <molecule>
Cc1onc(-c2ccccc2Cl)c1C(=O)N[C@@H]1C(=O)N2[C@@H]1[S+]([O-])C(C)(C)[C@@H]2C(=O)O (stereo partly specified)

>  <Relative inhibition>
370

$$$$

Dear colleague, I am looking for the recorded Relative inhibition of the following molecule: COC(=O)[C@@H]1N2C(=O)[C@@H](NC(=O)c3c(-c4ccccc4)noc3C)[C@H]2SC1(C)C
120

Would you kindly share the measured Relative inhibition for COc1cccc(OC)c1C(=O)N[C@@H]1C(=O)N2[C@@H]1SC(C)(C)[C@@H]2C(=O)O ?
50

Would you mind telling me what Relative inhibition value was observed for COC(=O)[C@@H]1N2C(=O)[C@@H](NC(=O)c3c(-c4ccccc4Cl)noc3C)[C@H]2SC1(C)C ?
270

What measured Relative inhibition goes with COC(=O)[C@@H]1N2C(=O)[C@@H](NC(=O)c3c(OC)cccc3OC)[C@H]2SC1(C)C ?
2

Which Relative inhibition value is on record for Cc1onc(-c2c(Cl)cccc2Cl)c1C(=O)N[C@@H]1C(=O)N2[C@@H]1SC(C)(C)[C@@H]2C(=O)O ?
5000

Sample COC(=O)[C@@H]1N2C(=O)[C@@H](NC(=O)c3c(-c4c(Cl)cccc4Cl)noc3C)[C@H]2SC1(C)C — what was its Relative inhibition?
1500

Requested field: Relative inhibition. Item: Cc1onc(-c2c(F)cccc2Cl)c1C(=O)N[C@@H]1C(=O)N2[C@@H]1SC(C)(C)[C@@H]2C(=O)O
5000
